Target system: SARS-CoV-1 spike protein (SARS-CoV-1, UniProt P59594 14-1195)
Test description: ELISA
Metric name: log10(EC50) (log10 of the value in nM)
Answers are given as log10 of EC50 in nM.

Answered cases to consult:
3-E13-A (antibody, V domains shown) VH: EVQLQQSGPELVKPGASVKMSCKASGYTFTDYNIHWVKQSHGKSLEWIGYINPNNGGTDYNQKFQGKATLTVNKSSSTAYMELRSLTSEDFAVYYCARGGFYGNYGAYYGMDFWGQGTSVTVSS VL: DIQMTQSPASLSASVGETVTITCRTSENIYSHLAWYQQTQGKSPQLLVYNAKTLAEGVPSRFSGSGSGTHFSLKINSLQPEDFGSYYCQHHYGIPPEFGGGTKLEIK ... -0.80
2-G20-A (antibody, V domains shown) VH: EVQLQQSGPELVKPGASVKMSCKASGYTFPSYVLHWVKQKPGQGLEWIGYIYPYNDGTNYNEKFKGKATLTSDKSSSTAYMELSSLTSEDSAVYYCARGDYGDSAWFPYWGQGTLVTVSA VL: DIVLTQSPASLAVSLGQRATISCRASKSVSTSGYSYMHWYQQKPGQPPKLLIYLASNLKSGVPARFSGGGSGTDFTLNIHPVEEEDAATYYCQLSRELPWTFGGGTKLEIK ... 0.16
2-J9-A (antibody, V domains shown) VH: EVQLQQSGPELVKPGASVKMSCKASGYTFTDYNIHWVKQSHGKSLEWIGYINPNNGGTDYNQKFQGKATLTVNKSSSTAYMELRSLTSEDSAVYYCARGGFYGNYGAYYGMDFWGQGTSVTVSS VL: DIQMTQSPASLSASVGETVTITCRTSENIYSHLAWYQQTQGKSPQLLVYNTKTLAEGVPSRFTGSGSGTQFSLKINSLQPEDFGSYYCQHHYGIPPEFGGGTKLEIK ... -0.77
9-P9-A (antibody, V domains shown) VH: DVKLVESGEGLVKPGGSLKLSCAASGFSFSNFGMSWVRQTPEKRLEWVAYISSGGDYIYYADTVKGRFTISRDNARNTLYLQMSSLKSEDTAIYYCTRGYFDYWGQGTTLTVSS VL: DVLMTQTPLSLPVSLGDQASISCRSSQSIVHSNGNTYLEWYLQKPGQSPKLLIYTVSNRFSGVPDRFSGSGSGTDFTLKISRVEAEDLGVYYCFQGSHVPYTFGGGTKLEMR ... -1.22

Now take the following binder into account.
INPUT: Given the binder 6-C19-A (antibody, V domains shown) VH: EVQLQQSGPELVKPGASVKMSCKASGYTFTDYNIHWVKQSHGKSLEWIGYINPNNGGTDYNQKFQGKATLTVDKSSSTAYMELRSLTSEDSAVYYCARGGFYGNYGSYYGMDFWGQGTSVTVSS VL: DIQMTQSPASLSASVGETVTITCRTSENIYSHLAWYQQTQGKSPHLLVYNAKTLAEGVPSRFSGSGSGTQFSLKINSLQPEDFGSYFCQHHYGIPPEFGGGTKLEIK , what is its reported log10(EC50)?
OUTPUT: 0.30
